molecular target: Voltage-gated inwardly rectifying potassium channel KCNH2 (Homo sapiens); assay: Human Ether-a-go-go-Related Gene (hERG) channel small molecule antagonists: fluorescence cell-based qHTS assay (AID 1671200); conditions: hERG-U2OS cells, FluxOR thallium flux fluorescence; series mostly up to 76.8 µM; note: nearly all actives have a fitted effect of over 50% in size
Results filed as inconclusive are left out. The source made the active and inactive calls. Calls come from the whole dose curve; as a rule, active = well fitted inhibition curve with a large enough effect in the repeat runs; inconclusive = weak or mixed curves; inactive = flat fitted curve, though single readings scatter.
Labels: active, inactive

[
  {
    "molecule": "O=c1[nH]c(Cl)c(Cl)cc1Cl",
    "category.label": "inactive"
  },
  {
    "molecule": "O=P(Cl)(Cl)Cl",
    "category.label": "inactive"
  },
  {
    "molecule": "CCN(CC)CCN1C(=O)CN=C(c2ccccc2F)c2cc(Cl)ccc21",
    "category.label": "active"
  },
  {
    "molecule": "CSC1=N[C@@](C)(c2ccccc2)C(=O)N1Nc1ccccc1",
    "category.label": "inactive"
  },
  {
    "molecule": "CCCCC/C=C\\C/C=C\\C/C=C\\C/C=C\\CCCC(=O)NCC(=O)O",
    "category.label": "inactive"
  },
  {
    "molecule": "CC[C@H](C)[C@H]1O[C@]2(C=C[C@@H]1C)C[C@@H]1C[C@@H](C/C=C(\\C)[C@@H](O[C@H]3C[C@H](OC)[C@@H](O[C@H]4C[C@H](OC)[C@@H](NC)[C@H](C)O4)[C@H](C)O3)[C@@H](C)/C=C/C=C3\\CO[C@@H]4[C@H](O)C(C)=C[C@@H](C(=O)O1)[C@]34O)O2",
    "category.label": "inactive"
  },
  {
    "molecule": "O=C(CCCCl)c1ccc(F)cc1",
    "category.label": "inactive"
  },
  {
    "molecule": "C=CC(=C)C",
    "category.label": "inactive"
  },
  {
    "molecule": "[F][Sn]([c]1ccccc1)([c]1ccccc1)[c]1ccccc1",
    "category.label": "active"
  },
  {
    "molecule": "CCCCC(CC)COC(=O)OOC(C)(C)C (stereo unspecified)",
    "category.label": "inactive"
  },
  {
    "molecule": "O=[N+]([O-])C(Br)Br",
    "category.label": "inactive"
  },
  {
    "molecule": "O=C(NC(=O)c1c(F)cccc1F)Nc1ccc(Oc2ccc(C(F)(F)F)cc2Cl)cc1F",
    "category.label": "active"
  },
  {
    "molecule": "O=C(O)[C@H](O)[C@@H](O)C(=O)O",
    "category.label": "inactive"
  },
  {
    "molecule": "O=C1C(Cl)=C(Cl)C(=O)C(Cl)=C1Cl",
    "category.label": "active"
  },
  {
    "molecule": "Nc1ccccc1-c1ccccc1",
    "category.label": "inactive"
  },
  {
    "molecule": "Cc1ccc([N+](=O)[O-])[c]2c1[O][Hg]2",
    "category.label": "active"
  },
  {
    "molecule": "O=C(NC(=O)c1ccccc1Cl)Nc1ccc(OC(F)(F)F)cc1",
    "category.label": "inactive"
  },
  {
    "molecule": "CC1CCCC1",
    "category.label": "inactive"
  },
  {
    "molecule": "Nc1ccc(Cl)cc1C(=O)c1ccccc1F",
    "category.label": "inactive"
  },
  {
    "molecule": "CC(C)C(Nc1ccc(C(F)(F)F)cc1Cl)C(=O)OC(C#N)c1cccc(Oc2ccccc2)c1 (stereo unspecified)",
    "category.label": "inactive"
  },
  {
    "molecule": "CSC(C)(C)/C=N/O",
    "category.label": "inactive"
  },
  {
    "molecule": "CCCCCON=O",
    "category.label": "inactive"
  },
  {
    "molecule": "c1csc(-c2ccc(-c3cccs3)s2)c1",
    "category.label": "inactive"
  },
  {
    "molecule": "Oc1ccc(Cl)c(Cl)c1",
    "category.label": "inactive"
  },
  {
    "molecule": "CN/C(=N\\[N+](=O)[O-])NCc1cnc(Cl)s1",
    "category.label": "inactive"
  },
  {
    "molecule": "CC(=O)[O][Sn]([c]1ccccc1)([c]1ccccc1)[c]1ccccc1",
    "category.label": "active"
  },
  {
    "molecule": "CCC(OC(C)=O)C(CC(C)NC)(c1ccccc1)c1ccccc1 (stereo unspecified)",
    "category.label": "active"
  },
  {
    "molecule": "O=NN(CCO)CCO",
    "category.label": "inactive"
  },
  {
    "molecule": "CC(=O)[O-].CC(=O)[O-].CC(=O)[O-].[Cr+3]",
    "category.label": "inactive"
  },
  {
    "molecule": "COc1nc(C)nc(NC(=O)NS(=O)(=O)c2ccccc2Cl)n1",
    "category.label": "inactive"
  },
  {
    "molecule": "N#Cc1c2ccccc2cc2ccccc12",
    "category.label": "inactive"
  },
  {
    "molecule": "COP(=S)(OC)Oc1ccc([N+](=O)[O-])c(C)c1",
    "category.label": "inactive"
  },
  {
    "molecule": "N#CSCc1ccccc1",
    "category.label": "inactive"
  },
  {
    "molecule": "CCN(CC)Cc1nccn1-c1ccc([N+](=O)[O-])cc1C(=O)c1ccccc1Cl",
    "category.label": "active"
  },
  {
    "molecule": "CNC(=O)Oc1cc(C)cc(C(C)C)c1",
    "category.label": "inactive"
  },
  {
    "molecule": "Cc1cccc(Cc2cnc[nH]2)c1C",
    "category.label": "inactive"
  },
  {
    "molecule": "CC(=O)[O-].CC(=O)[O-].[Co+2]",
    "category.label": "inactive"
  },
  {
    "molecule": "COC(=O)c1ccccc1S(=O)(=O)NC(=O)Nc1nc(C)nc(OC)n1",
    "category.label": "inactive"
  },
  {
    "molecule": "c1ccc2nc(N3CCNCC3)ccc2c1",
    "category.label": "inactive"
  },
  {
    "molecule": "Oc1ccc2[nH]cc(CCCCN3CC=C(c4ccccc4)CC3)c2c1",
    "category.label": "active"
  },
  {
    "molecule": "C#CCC1=C(C)C(OC(=O)C2C(C=C(C)C)C2(C)C)CC1=O (stereo unspecified)",
    "category.label": "active"
  },
  {
    "molecule": "CCCCn1cc[n+](C)c1 (tested in a mixture with another compound)",
    "category.label": "inactive"
  },
  {
    "molecule": "CSSC",
    "category.label": "inactive"
  },
  {
    "molecule": "C[C@H]1[C@H](c2ccc(Cl)cc2)SC(=O)N1C(=O)NC1CCCCC1",
    "category.label": "active"
  },
  {
    "molecule": "Cc1nn(-c2cc(NS(C)(=O)=O)c(Cl)cc2Cl)c(=O)n1C(F)F",
    "category.label": "inactive"
  },
  {
    "molecule": "Cc1cnc2c(C(=O)O)c(Cl)ccc2c1",
    "category.label": "inactive"
  },
  {
    "molecule": "[O-][Cl+3]([O-])([O-])O",
    "category.label": "inactive"
  },
  {
    "molecule": "Clc1ccc(C2(Cn3cncn3)OCCO2)c(Cl)c1",
    "category.label": "inactive"
  },
  {
    "molecule": "C=CCOC(=O)c1ccccc1N",
    "category.label": "inactive"
  },
  {
    "molecule": "CC1CN1 (stereo unspecified)",
    "category.label": "inactive"
  },
  {
    "molecule": "C[C@]12CC[C@H]3[C@@H](CCC4=CC(=O)CC[C@@H]43)[C@@H]1CC[C@@H]2OC(=O)CCc1ccco1",
    "category.label": "active"
  }
]
